- Assay Name: qHTS assay to identify small molecule antagonists of the estrogen receptor alpha (ER-alpha) signaling pathway using the BG1 cell line (AID 743080);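 also: BG1 cells stimulated with 17beta-estradiol alongside compound; nearly all actives have a fitted effect of over 25% in size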
- Condition Parameters: BG1Luc4E2 ERE-luciferase antagonist mode, luminescence; series mostly up to 70.3 µM
- Source text: National Center for Advancing Translational Sciences [NCATS] NIH Chemical Genomics Center [NCGC] U.S. Environmental Protection Agency [EPA] National Institutes of Environmental Health Sciences [NIEHS] National Toxicology Program [NTP] U.S. Food and Drug Administration [FDA] Estrogen receptor (ER), a nuclear hormone receptor, plays an important role in development, metabolic homeostasis and reproduction. […]
Inconclusive results are not listed. Calls of active or inactive are those of the source. Calls follow the shape of the full dose curve. Positions of bridges follow the written chain, without caps; N, C: chain ends. Non-standard residues stand in square brackets, D forms with d. Residues, ends and D or L forms follow the SMILES beside them. *: point of attachment. X2 = CC[C@H](C)CCCCC(=O)*; Dab = NCC[C@H](N)C(=O)O
Labels: active, inactive

molecule="CS(=O)(=O)OCC(O)C(O)COS(C)(=O)=O (stereo unspecified)" classification=inactive
molecule=O=P(O)(O)C(O)(Cc1cnc2ccccn12)P(=O)(O)O classification=inactive
molecule=O=C(Cc1cccs1)N[C@@H]1C(=O)N2C(C(=O)[O-])=C(C[n+]3ccccc3)CS[C@H]12 classification=inactive
molecule=O=C[C@H](O)[C@@H](O)[C@H](O[C@H]1O[C@H](CO)[C@@H](O[C@H]2O[C@H](CO)[C@@H](O)[C@H](O)[C@H]2O)[C@H](O)[C@H]1O)[C@H](O)CO classification=inactive
molecule=CN(C)CCCN1c2ccccc2C(C)(C)c2ccccc21 classification=inactive
molecule=CC(=O)O[C@H]1C[C@@]2(C)[C@@H](C[C@@H](O)[C@H]3[C@@]4(C)CC[C@@H](O)[C@@H](C)[C@@H]4CC[C@@]32C)/C1=C(\CCC=C(C)C)C(=O)O classification=inactive
molecule=NCCC[C@H](N)C(=O)O classification=inactive
molecule="NC(N)=NCC1COc2ccccc2O1 (stereo unspecified)" classification=inactive
molecule=CCN(CC)CCOC(=O)c1cccnc1 classification=inactive
molecule=COC(=O)[C@H]1[C@H]2C[C@@H]3c4[nH]c5ccccc5c4CCN3C[C@H]2C[C@@H](OC(=O)c2cc(OC)c(OC)c(OC)c2)[C@@H]1OC classification=active
molecule=C=C1C(=C/C=C2\CCC[C@]3(C)[C@@H]([C@H](C)CCCC(C)(C)O)CC[C@@H]23)C[C@@H](O)C[C@@H]1O classification=active
molecule=N#Cc1ccc2c(c1)N(CCCN1CCC(O)CC1)c1ccccc1S2 classification=inactive
molecule="Cc1nnc(C(C)C)n1C1C[C@H]2CC[C@@H](C1)N2CC[C@H](NC(=O)C1CCC(F)(F)CC1)c1ccccc1 (stereo partly specified)" classification=inactive
molecule="Cc1cc(O)c2c(c1)O[C@@]1(C)CC[C@H]3C(C)(C)CCCC34CO[C@@H]2[C@H]41 (stereo partly specified)" classification=active
molecule=CCCc1ccc(C(=O)O)cc1 classification=inactive
molecule="CC[C@H](C)CCCCC(=O)N[C@@H](CCN)C(=O)N[C@H](C(=O)N[C@@H](CCN)C(=O)N[C@H]1CCNC(=O)[C@@H]([C@H](C)O)NC(=O)[C@H](CCN)NC(=O)[C@H](CCN)NC(=O)[C@H](CC(C)C)NC(=O)[C@@H](CC(C)C)NC(=O)[C@H](CCN)NC1=O)[C@@H](C)O (X2-[Dab]T[Dab][Dab][Dab][dL]L[Dab][Dab][dT]; lactam 4-C)" classification=inactive

// data source = PubChem BioAssay (Tox21)
